- Tested on: Staphylococcus aureus
- condition context: Concentration 32 ug.mL-1;; ASSAY_TEST Inhibition of Bacterial Growth; detection method Absorption (OD600); MEDIA CAMHB; plate type 384well; NBS; CORNING #3640; time 18 hr
- Description: Antibacterial activity against Staphylococcus aureus MRSA ATCC 43300 (CO-ADD:GP_020); MIC in CAMBH media, using NBS plates, by OD(600)
Potency and affinity values are given separately.
Measured Inhibition accompanies every entry in the list below.
measurement kind: Inhibition (%)

O=C(Cn1nc2c3sc(N4CCCC4)nc3ncn2c1=O)Nc1ccc(C(F)(F)F)cc1
13.19
CCc1ccc(N(Cc2cccc(F)c2)S(=O)(=O)c2cccn3c(C)nnc23)cc1
10.02
COc1ccc(NC(=O)Cn2nc3ccc(SCc4ccc(Cl)cc4)nn3c2=O)cc1
-5.92
O=C(CSc1nnc2c(=O)n(-c3ccc(Br)cc3)ccn12)Nc1cccc(F)c1
9.13
CCOc1ccc(NC(=O)Cn2nc3c(N4CCCC4)nccn3c2=O)cc1
0.84
CC(C)c1nnc2c(SCC(=O)N3CCN(c4ccccc4F)CC3)nc3ccccc3n12
-2.06
CCOc1ccc(NC(=O)Cn2nc3c4c5c(sc4ncn3c2=O)CCCC5)cc1
-17.71
COc1ccc(NC(=O)c2ccc3nn(CC(=O)Nc4cc(Cl)ccc4OC)c(=O)n3c2)cc1
7.85
Cc1ccc(CN(c2cc(C)cc(C)c2)S(=O)(=O)c2cccn3c(C)nnc23)cc1
31.07
COc1cccc(-n2ccn3c(SCc4c(F)cccc4Cl)nnc3c2=O)c1
2.96

====

- Tested on: Escherichia coli
- condition context: Concentration 32 ug.mL-1;; ASSAY_TEST Inhibition of Bacterial Growth; detection method Absorption (OD600); MEDIA CAMHB; plate type 384well; NBS; CORNING #3640; time 18 hr
- Description: Antibacterial activity against Escherichia coli ATCC 25922 (CO-ADD:GN_001); MIC in CAMBH media using NBS plates, by OD(600)
Results with a measured potency or affinity are listed apart.
measurement kind: Inhibition (%)

O=c1c2sccc2n2c(=O)n(Cc3ccc(Br)cc3)nc2n1CCc1ccccc1
-11.48
CCCCc1ccc(NC(=O)CSc2nc3ccccc3n3c(CC)nnc23)cc1
-2.23
O=C(Cn1nc2c3cc(-c4ccc(Cl)cc4)nn3ccn2c1=O)NCc1ccccc1
4.95
Cc1ccc(Oc2nccn3c(=O)n(CC(=O)NCc4cccs4)nc23)cc1
1.37
CCOc1ccc(-n2ccn3c(SC(C)C(=O)Nc4ccc(OC)cc4)nnc3c2=O)cc1 (stereo not given)
-5.92
O=C(Cn1nc2c(SCc3ccc(Cl)cc3)nccn2c1=O)Nc1ccccc1F
-0.33
O=C(CSc1nnc2c(=O)n(-c3ccccc3)ccn12)Nc1ccc(F)cc1F
-2.13
COc1cccc(Oc2nccn3c(=O)n(CC(=O)Nc4ccc5c(c4)OCCO5)nc23)c1
-8.9
O=C(CSc1nnc2c3cc(-c4ccc(F)cc4)nn3ccn12)NCc1ccccc1
-6.24
O=c1c2sccc2n2c(=O)n(Cc3ccc(Br)cc3)nc2n1Cc1cccs1
-9.69

====

- System: Staphylococcus aureus
- condition context: Concentration 32 ug.mL-1;; ASSAY_TEST Inhibition of Bacterial Growth; detection method Absorption (OD600); MEDIA CAMHB; plate type 384well; NBS; CORNING #3640; time 18 hr
Entries with a potency or affinity are not part of this list.
The reader will find reported Inhibition values listed item by item below.
measurement kind: Inhibition (%)

Cc1nnc2c(=O)n(CC(=O)Nc3ccc(Cl)cc3F)c3ccccc3n12
7.03
COc1ccc(-c2cc3c4nn(CC(=O)Nc5ccc(C)c(C)c5)c(=O)n4ccn3n2)cc1
9.35
O=C(Cn1nc2c(N3CCOCC3)nccn2c1=O)Nc1ccc2c(c1)OCO2
15.61
Cc1ccc(-c2cc3c4nn(CC(=O)Nc5ccccc5Cl)c(=O)n4ccn3n2)cc1
2.52
O=C(CSc1nc2ccccc2n2cnnc12)Nc1cccc(Br)c1
-6.77
O=c1n(Cc2ccc3c(c2)OCO3)nc2c(S(=O)(=O)N3CCCC3)cccn12
0.67
CCc1nnc2c(SCC(=O)Nc3cccc(OC)c3)nc3ccccc3n12
0.35
COc1cccc(-n2ccn3c(SCC(=O)N4CCN(c5ccc(F)cc5)CC4)nnc3c2=O)c1
6.4
O=C(Cn1nc2ccc(-c3ccc(Cl)cc3)nn2c1=O)NC1CCCC1
12.95
CC(C)CCNC(=O)Cn1nc2n(CC(C)C)c(=O)c3sccc3n2c1=O
4.95
CC(=O)c1cccc(NC(=O)CSc2nc3ccccc3n3c(C)nnc23)c1
-0.38
CCc1ccc(N(Cc2ccc(F)cc2)S(=O)(=O)c2cccn3c(C)nnc23)cc1
6.87
COc1ccc(-c2cc3c4nn(CC(=O)Nc5ccc6c(c5)OCO6)c(=O)n4ccn3n2)cc1
8.96
CC(C)c1ccc(N(Cc2cc(F)cc(F)c2)S(=O)(=O)c2cccn3cnnc23)cc1
8.68
CCOc1ccc(-n2ccn3c(SCC(=O)Nc4ccc(C)c(C)c4)nnc3c2=O)cc1
-4.99
COc1ccccc1N1CCN(C(=O)CSc2nc3ccccc3n3c(C(C)C)nnc23)CC1
1.01
CC(C)CCNC(=O)CSc1nnc2c(=O)n(Cc3ccc(F)cc3)ccn12
8.45
COc1cccc(Sc2nc3ccccc3n3c(=O)n(CC(=O)Nc4cccc(C#N)c4)nc23)c1
2.4
Cc1cc(C)cc(NC(=O)Cn2nc3c(Sc4cccc(C)c4)nc4ccccc4n3c2=O)c1
1.17
Cc1ccc(NC(=O)Cn2c(=O)c3nnc(C(C)C)n3c3ccccc32)cc1C
7.95
